System: Alternaria tenuis
Experiment: Fungicidal effect on infected agar nutrient media, colony diameter
Type: cell-based
Conditions: 10 ppm; 5th day after treatment; untreated control 36.8
endpoint: Diameter of colony (mm)
One number for each entry, in mm.

> print(dat)
                                   compound      target.system                 endpoint  observed.value
1  S=P1(OCCCl)OCCS1 (stereo not drawn) [Compound 1]  Alternaria tenuis  Diameter of colony (mm)            25.8
2  CC(Cl)COP1(=S)OCC(C)S1 (stereo not drawn) [Compound 25]  Alternaria tenuis  Diameter of colony (mm)            24.0
3  CCCCOP1(=S)OC(C)CS1 (stereo not drawn) [Compound 60]  Alternaria tenuis  Diameter of colony (mm)            25.5
4  CC1COP(=S)(OC(C)C(C)Cl)S1 (stereo not drawn) [Compound 31]  Alternaria tenuis  Diameter of colony (mm)            23.6
5  CCCOP1(=S)OCC(CC)S1 (stereo not drawn) [Compound 51]  Alternaria tenuis  Diameter of colony (mm)            24.3

Go through the items and report each one's Diameter of colony (mm).
1. CCCCOP1(=S)OCC(C)S1 (stereo not drawn) [Compound 61]
2. CC(Br)COP1(=S)OCC(C)S1 (stereo not drawn) [Compound 26]
3. CC(Br)C(C)OP1(=S)OC(C)C(C)S1 (stereo not drawn) [Compound 44]
4. CC1COP(=S)(OC(C)C(C)I)S1 (stereo not drawn) [Compound 33]
5. CC1CSP(=S)(OCCI)O1 (stereo not drawn) [Compound 6]
6. CC1COP(=S)(OCCI)S1 (stereo not drawn) [Compound 9]

Out:
[24.3, 21.1, 26.2, 21.3, 21.0, 24.6]

In: Report measured Diameter of colony (mm); entry is CC(Br)COP1(=S)OC(C)C(C)S1 (stereo not drawn) [Compound 41]
Out: 25.1

Provenance of the data: patent US4877893A
